Ref: ChEMBL document CHEMBL1132312

# EXPERIMENT: pA2 value was evaluated by measuring the inhibition of the 5-HT-induced contraction of rat aorta.
# Format: functional, tissue-based
VALUE_KIND: pA2
Numbers only.

Sample records with pA2:
COMPOUND	pA2
O=C1CC(CN2CCC(C(=O)c3ccc(F)cc3)CC2)Cc2ccccc21 (stereo not given)	7.86
Cl.O=C(CCCN1CCN(CCC2CCc3sccc3C2=O)CC1)c1ccc(F)cc1 (stereo not given)	6.83
O=C(O)C(=O)O.O=C(c1ccc(F)cc1)C1CCN(CCC2Cc3sccc3C2=O)CC1 (stereo not given)	8.92
Cl.O=C1CC(CN2CCC(c3noc4cc(F)ccc34)CC2)Cc2sccc21 (stereo not given)	9.13

Next, consider the following compound.
Query: # lookup: pA2 of Cl.O=C1CC(CN2CCC(C(=O)c3ccc(F)cc3)CC2)Cc2sccc21 (stereo not given)
Reply: 7.82
